molecular target: Human immunodeficiency virus type 1 reverse transcriptase (Human immunodeficiency virus 1, UniProt Q72547)
Exercise: for every item that follows, state its recorded pIC50.
Lab note — pIC50 values are minus log10 of concentrations in M.

[Q] Could you tell me which pIC50 is on file for `O=C1c2ccccc2S[C@H]2[C@@H](O)[C@@H](O)[C@H](O)[C@H](CO)N12` ?
[A] 6.31

[Q] Would you mind doing `O=C1c2ccccc2S[C@@H]2[C@@H](O)[C@@H](O)[C@H](O)[C@@H](CO)N12` as well?
[A] 4.71

[Q] Would you mind doing `O=C1c2cccnc2S[C@@H]2[C@@H](O)[C@@H](O)[C@H](O)[C@@H](CO)N12` as well?
[A] 4.27

[Q] Would you mind doing `O=C1CCS[C@H]2[C@@H](O)[C@@H](O)[C@H](O)[C@H](CO)N12` as well?
[A] 4.89

[Q] Would you mind doing `O=C1c2ccccc2S[C@@H]2[C@@H](O)[C@@H](O)[C@H](O)[C@H](CO)N12` as well?
[A] 5.88

---

Recorded pIC50 values (Human immunodeficiency virus type 1 reverse transcriptase (Human immunodeficiency virus 1)) are given below.
Lab note — pIC50 values are minus log10 of concentrations in M.

[Q] What reported pIC50 corresponds to `O=C1c2cccnc2S[C@@H]2[C@@H](O)[C@@H](O)[C@H](O)[C@H](CO)N12` on Human immunodeficiency virus type 1 reverse transcriptase (Human immunodeficiency virus 1)?
[A] 4.57

[Q] Would you mind doing `O=C1c2cccnc2S[C@H]2[C@@H](O)[C@@H](O)[C@H](O)[C@H](CO)N12` as well?
[A] 4.50

[Q] Would you mind doing `O=C1c2ccccc2S[C@H]2[C@@H](O)[C@@H](O)[C@H](O)CN12` as well?
[A] 5.80

[Q] Would you mind doing `O=C1c2ccccc2S[C@@H]2[C@@H](O)[C@@H](O)[C@H](O)CN12` as well?
[A] 5.42

[Q] Would you mind doing `O=C1CCS[C@@H]2[C@@H](O)[C@@H](O)[C@H](O)[C@H](CO)N12` as well?
[A] 5.22

[Q] Would you mind doing `O=C1CCS[C@@H]2[C@@H](O)[C@@H](O)[C@H](O)[C@@H](CO)N12` as well?
[A] 5.85
